Reported values: pIC50 for Procollagen C-Proteinase (PCP) (Homo sapiens), one per item.
Notebook: values listed as pIC50 are -log10 of the concentration (mol/L).

Solved cases below.
Lab note: COc1cc(C)c(S(=O)(=O)N(Cc2ccc3c(c2)OCO3)[C@@H](C(=O)NO)C(C)C)c(C)c1 [Cmpd 40] gave pIC50 of 7.17

Lab note: COc1cc(C)c(S(=O)(=O)N(Cc2ccc3[nH]cnc3c2)[C@@H](C(=O)NO)C(C)C)c(C)c1C [Cmpd 82] gave pIC50 of 7.40

Lab note: COc1cc(C)c(S(=O)(=O)N(Cc2ccc3[nH]ccc3c2)[C@@H](C(=O)NO)C(C)C)cc1C [Cmpd 145] gave pIC50 of 6.96

Okay, next one:
Lab note: COc1cc(C)c(S(=O)(=O)N(Cc2ccc3c(c2)OCO3)[C@H](CO)C(=O)NO)c(C)c1C [Cmpd 5] gave pIC50 of 7.14
